meta.source: ChEMBL document CHEMBL1201862

Quick reference: GI50 of the listed items.
# Tested on: MOLT-4
# experiment_description: NCI tumour cell line growth inhibition, 48 h
Active and inactive are the calls of the source. Rule as the data show it: active = GI50 up to about 1.1 µM and inactive = higher.
property_label: GI50

>>> assay_value("CCc1ccccc1NC(=O)C(=O)C(C#N)c1c(Cl)cccc1Cl (stereo unspecified)")
"> 100 µM (inactive)"
>>> assay_value("O=C(NCCO)Nc1c(C(F)(F)F)cc(-c2ccccc2)[nH]c1=O")
"> 100 µM (inactive)"
>>> assay_value("N=C1N(c2ccccc2)C(=O)C23CCCC2C13N1CCOCC1 (stereo unspecified)")
"> 100 µM (inactive)"
>>> assay_value("CC(=O)Nc1ccc(-c2nc3ccccc3s2)cc1Br")
"> 100 µM (inactive)"
>>> assay_value("NCc1ccccc1-c1c2nc(c(-c3ccccc3CN)c3ccc([nH]3)c(-c3ccccc3CN)c3nc(c(-c4ccccc4CN)c4ccc1[nH]4)C=C3)C=C2")
"> 10 µM (inactive)"
>>> assay_value("NC(=O)NCc1c(C(N)=O)ncn1Cc1ccccc1")
"> 100 µM (inactive)"
